assay: chemical genetic growth profiling, strain panel (AID 1159580);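 also: tested at 20 µM; growth read once vehicle control cultures reached saturation at 30 °C; 1 = growth at the plate median or of vehicle wells; lower values mean less growth of the strain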; conditions: S. cerevisiae deletion strains, growth OD, locus YKL085W, strain MDH1 (second series), hits give low values
In all, about 5,500 compounds went through this assay and about 2,000 (36%) were called active. Inconclusive results (about 18%) are left out. Some of the results follow.
PARAMETER_MEASURED: normalized growth
One number for each entry.

Here's what some known entries look like.
Task item: Suppose we examine the compound `CCOC(=O)[C@H](CCc1ccccc1)N[C@H]1CCc2ccccc2N(CC(=O)O)C1=O` ; what normalized growth value has been reported?
Reply: 0.967

Task item: Suppose we examine the compound `C[C@@H]1[C@H]2[C@H](O[C@@H]3O[C@H](CO)[C@@H](O)[C@H](O)[C@H]3O)OC=C(C(=O)O)[C@H]2C[C@@H]1O` ; what normalized growth value has been reported?
Reply: 0.987

Task item: Suppose we examine the compound Cc1cccc(C)c1OCC(C)N (stereo unspecified) ; what normalized growth value has been reported?
Reply: 1.04

Task item: Suppose we examine the compound `CCOC(=O)C(C)(C)Oc1ccc(Cl)cc1` ; what normalized growth value has been reported?
Reply: 1.01

Task item: Suppose we examine the compound CCOC(=O)C(=O)C1(C(=O)OCC)Oc2cc(OC)cc(OC)c2C(=O)C1c1ccccc1 (stereo unspecified) ; what normalized growth value has been reported?
Reply: 0.959

Task item: Suppose we examine the compound `CCOC(=O)c1c(C)cc(O)c(C)c1O` ; what normalized growth value has been reported?
Reply: 0.943

Field: normalized growth. Fill in for each record below.
1. CC(C)(O)[C@@H]1[C@H]2OC(=O)[C@@H]1[C@]1(O)C[C@H]3O[C@]34C(=O)O[C@H]2[C@]14C
2. NC(=O)c1ccc[n+]([C@@H]2O[C@H](COP(=O)([O-])OP(=O)(O)OC[C@H]3O[C@@H](n4cnc5c(N)ncnc54)[C@H](O)[C@@H]3O)[C@@H](O)[C@H]2O)c1
3. COc1cc2c(cc1OC)[C@@H]1C(=O)c3ccc4c(c3O[C@@H]1CO2)C=CC(C)(C)O4
4. COc1ccc2c(c1)OCc1c-2oc2cc(OC)ccc12
5. COc1ccc2c(C)cc(=O)oc2c1
6. NCCSSCCN
7. COc1cc(O)c(C(=O)/C=C/c2ccccc2)c(OC)c1
8. COc1cc2c(cc1OC)C1C(=O)c3c(cc4c(c3O)C=CC(C)(C)O4)OC1CO2 (stereo unspecified)

Reply:
[1, 0.986, 0.967, 0.984, 1.01, 1.01, 0.952, 1.01]

Field: normalized growth. Fill in for each record below.
1. C=C(C)[C@@H]1[C@H]2OC(=O)[C@@H]1[C@]1(O)C[C@H]3O[C@]34C(=O)O[C@H]2[C@]14C
2. CCN(CC)CCNC(=O)c1cc(Br)c(N)cc1OC
3. C[N+](C)(C)CCOC(N)=O
4. CC1(C)OC(=O)NC1=O
5. COc1cc(NC(C)CCCN)c2ncccc2c1 (stereo unspecified)

Reply:
1. 0.996
2. 0.993
3. 0.969
4. 1.06
5. 1

Field: normalized growth. Fill in for each record below.
1. CC(=O)OCC(=O)[C@@]1(O)CCC2C3CCC4=CC(=O)CC[C@]4(C)C3C(=O)C[C@@]21C (stereo partly specified)
2. CC(C)OC(=O)C(C)(C)Oc1ccc(C(=O)c2ccc(Cl)cc2)cc1

Reply:
[1.02, 0.947]
